TGT: T1, monkey Fc-PD-1 protein (monkey, UniProt Q15116 25-170 (human entry))
T1 construct: not shown: Fc part not described
T1 chain: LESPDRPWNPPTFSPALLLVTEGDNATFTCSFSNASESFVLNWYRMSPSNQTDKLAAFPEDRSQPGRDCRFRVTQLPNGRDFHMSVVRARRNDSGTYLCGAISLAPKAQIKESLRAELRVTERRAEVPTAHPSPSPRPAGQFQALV
EXPERIMENT NOTES: Biacore, Fab, monkey Fc-PD-1
Measured kon accompanies every entry in the list below.
Write the value in M⁻¹ s⁻¹ as a bare number.

Sample records with kon:
GET /value?item= A36437 (Fab, V domains shown, humanized Fab clone of 135C12; also called humanized antibody A36437) VH: EVQLVQSGAEVKKPGESLKISCKGSGYSFTNFYIHWVRQMPGKGLEWMGSIYPNYGDTAYNQKFKDRFVFSLDTSVSTAYLQISSLKAEDTAVYYCARGYSYAMDYWGQGTTVTVSS VL: DIQMTQSPSTLSASVGDRVTITCSASQGISGDLNWYQQKPGQAPRLLIYHTSSLHSGIPARFSGSGSGTDFTLTISSLQPEDFAVYYCQYYSKDLLTFGGGTKLEIK &field=kon returns 60700

GET /value?item= A36443 (Fab, V domains shown, humanized Fab clone of 135C12; also called humanized antibody A36443) VH: EVQLVQSGAEVKKPGATVKISCKVSGYTFTNFYIHWVRQARGQRLEWIGSIYPNYGDTAYNQKFKDRVTITADKSTSTAYMELSSLRSEDTAVYYCARGYSYAMDYWGQGTTVTVSS VL: DIQMTQSPSSVSASVGDRVTITCSASQGISGDLNWYQQKPGQAPRLLIYHTSSLHSGVPSRFSGSGSGTEFTLTISRLEPEDFAVYYCQYYSKDLLTFGGGTKLEIK &field=kon returns 94900

GET /value?item= A35777 (Fab, V domains shown, humanized Fab clone of 135C12; also called humanized antibody A35777) VH: EVQLVQSGAEVKKPGATVKISCKVSGYTFTNFYIHWVRQAPGKGLEWMGSIYPNYGDTAYNQKFKDRVTITADKSTSTAYMELSSLRSEDTAVYYCARGYSYAMDYWGQGTTVTVSS VL: DIQMTQSPSTLSASVGDRVTITCSASQGISGDLNWYQQKPGQAPRLLIYHTSSLHSGVPSRFSGSGSGTDFTLTISSLQPEDFATYYCQYYSKDLLTFGGGTKLEIK &field=kon returns 115000

GET /value?item= A35774 (Fab, V domains shown, humanized Fab clone of 135C12; also called humanized antibody A35774) VH: EVQLVQSGAEVKKPGESLKISCKGSGYSFTNFYIHWVRQAPGQRLEWMGSIYPNYGDTAYNQKFKDRFVFSLDTSVSTAYLQISSLKAEDTAVYYCARGYSYAMDYWGQGTTVTVSS VL: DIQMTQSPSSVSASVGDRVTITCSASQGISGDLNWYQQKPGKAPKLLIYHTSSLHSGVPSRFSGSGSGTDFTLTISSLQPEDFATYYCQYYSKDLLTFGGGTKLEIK &field=kon returns 69300

GET /value?item= A35783 (Fab, V domains shown, humanized Fab clone of 135C12; also called humanized antibody A35783) VH: EVQLVQSGAEVKKPGESLKISCKGSGYSFTNFYIHWVRQARGQRLEWIGSIYPNYGDTAYNQKFKDRFVFSLDTSVSTAYLQISSLKAEDTAVYYCARGYSYAMDYWGQGTTVTVSS VL: DIQMTQSPSSLSASVGDRVTITCSASQGISGDLNWYQQKPGKTPKLLIYHTSSLHSGVPSRFSGSGSGTDFTLTISSLQPEDFATYYCQYYSKDLLTFGGGTKLEIK &field=kon returns 421000

GET /value?item= A35789 (Fab, V domains shown, humanized Fab clone of 135C12; also called humanized antibody A35789) VH: EVQLVQSGAEVKKPGESLKISCKGSGYSFTNFYIHWVRQMPGKGLEWMGSIYPNYGDTAYNQKFKDRVTITADKSTSTAYMELSSLRSEDTAVYYCARGYSYAMDYWGQGTTVTVSS VL: DIQMTQSPSSVSASVGDRVTITCSASQGISGDLNWYQQKPGQAPRLLIYHTSSLHSGIPARFSGSGSGTDFTLTISRLEPEDFAVYYCQYYSKDLLTFGGGTKLEIK &field=kon returns 66700

Now look at this entry.
GET /value?item= A35775 (Fab, V domains shown, humanized Fab clone of 135C12; also called humanized antibody A35775) VH: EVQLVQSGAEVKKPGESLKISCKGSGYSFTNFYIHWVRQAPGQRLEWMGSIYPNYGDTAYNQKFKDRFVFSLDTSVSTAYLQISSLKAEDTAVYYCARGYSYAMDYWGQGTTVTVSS VL: DIQMTQSPSSVSASVGDRVTITCSASQGISGDLNWYQQKPGQAPRLLIYHTSSLHSGVPSRFSGSGSGTDFTLTISSLQPEDFATYYCQYYSKDLLTFGGGTKLEIK &field=kon returns 60500
